tested on: SR leukemia; test: NCI tumour cell line growth inhibition, 48 h
Where a SMILES comes first, the peptide text is derived from it.
attribute measured: TGI

Sure, the documented TGI for N#Cc1c(N)nc(NCc2ccccc2)c(C#N)c1-c1ccccc1Cl is 32.8 µM

Sure, the documented TGI for CNC(=O)CNC(=O)C(NC(=O)CNC(=O)C1CCCN1C(=O)C(C)NC(=O)C(NC(C)=O)C(C)C)C(C)C (stereo not drawn) (Ac-VAPGVG-NHMe; configuration not given here) is > 100 µM

Sure, the documented TGI for C[C@@H](CO)C1=CC(C#C[Si](C)(C)C)N(C(=O)Oc2ccccc2)c2ccccc21 (stereo partly drawn) is > 100 µM

Sure, the documented TGI for O=C(O)c1c[nH]c2c(OCc3ccccc3)c3ccccc3c(O)c2c1=O is 59.6 µM

Sure, the documented TGI for O=[N+]([O-])c1cc(-c2nnc(C34CC5CC(CC(C5)C3)C4)o2)cc([N+](=O)[O-])c1 is > 100 µM

Sure, the documented TGI for Cc1cc(=O)oc2c(OS(C)(=O)=O)c(OS(C)(=O)=O)ccc12 is > 100 µM

Sure, the documented TGI for CC(C(=O)O)/C(=C\c1ccc2c(c1)OCO2)C(=O)O (stereo not drawn) is > 100 µM

Sure, the documented TGI for NC(=O)Nc1ccc(C(=O)NCCCNC(=O)c2ccc(NC(N)=O)cc2)cc1 is > 100 µM

----------
tested on: SN12C renal; experiment: NCI tumour cell line growth inhibition, 48 h
attribute measured: TGI

Sure, the documented TGI for O=Nc1sc(=N\O)/c(=N/O)sc1NO is > 100 µM

Sure, the documented TGI for CS/C(=N\S(=O)(=O)c1cc(C)c(Cl)cc1Cl)NNc1cnc2ccccc2n1 is > 100 µM

Sure, the documented TGI for COc1cc([C@@H]2c3cc4c(cc3[C@@H](OC3OC5COC(C)OC5C(OC(=O)CN5CCN(C)CC5)C3OC(=O)CN3CCN(C)CC3)C3COC(=O)[C@@H]32)OCO4)cc(OC)c1OC(=O)CN1CCN(C)CC1 (stereo not given in full) is > 100 µM

Sure, the documented TGI for COC(=O)c1cnn2c1ccc1ccccc12 is > 100 µM

Sure, the documented TGI for Cc1cc2cc3cc(C)c(N)cc3[n+](C)c2cc1N is 10.2 µM

Sure, the documented TGI for O=NN/C(=C1\Nc2ccc([N+](=O)[O-])cc2NC1=O)C(O)c1ccc([N+](=O)[O-])cc1 (stereo not given) is > 100 µM

Sure, the documented TGI for Cc1ccc2ccc3ccc(C)nc3c2n1 is > 100 µM

Sure, the documented TGI for C/C(=C\CCc1ccsc1)CC/C=C(\C)CCCN1CCC(CO)CC1 is 14.2 µM

Sure, the documented TGI for CC1=CC(=O)c2c(C=O)c(O)c(O)c(C(C)C)c2C1=O is > 100 µM

Sure, the documented TGI for CC(=O)N1CC(=O)NC1=S is > 100 µM

----------
system: SK-OV-3 ovarian; assay: NCI tumour cell line growth inhibition, 48 h
attribute measured: TGI

Sure, the documented TGI for NCCCCN(CCCN)Cc1ccc2ccccc2c1 is > 100 µM

Sure, the documented TGI for Cc1ccc([N+](=O)[O-])cc1S(=O)(=O)Nc1ccc(C2=NN(C(=O)c3ccccc3)C(c3cccs3)C2)cc1 (configuration not stated) is 82.5 µM

Sure, the documented TGI for NCCCNCCSSC/C=C\CSSCCNCCCN is > 100 µM

Sure, the documented TGI for CC1OC(OC2C(CO)OC(O[C@H]3CC[C@@]4(C)C(=CC[C@H]5[C@@H]6C[C@@H]7O[C@](O)(CC[C@H](C)COC8OC(CO)C(O)C(O)C8O)[C@@H](C)[C@@H]7[C@@]6(C)CC[C@@H]54)C3)C(OC3OC(C)C(O)C(O)C3O)C2O)C(O)C(O)C1O (some centres not stated) is 6.12 µM

Sure, the documented TGI for C=C(C)[C@@H]1CCC2=C[C@H](OC2=O)[C@@]2(C)C[C@@H]2C(=O)/C=C(/C)C(=O)[C@H]1OC(C)=O is > 84.7 µM

Sure, the documented TGI for COC(=O)C1=C(c2ccc3c(c2)OCO3)OC(c2ccc3c(c2)OCO3)C1 (configuration not stated) is > 100 µM

Sure, the documented TGI for COC(=O)C(Cc1ccccc1)NC(=O)Cn1ccnc1[N+](=O)[O-] (configuration not stated) is > 100 µM

Sure, the documented TGI for COc1ccc2c(c1)/C(=C\c1c(Cl)n(C)c3ccccc13)C(=O)N2 is 14.5 µM

Sure, the documented TGI for CSc1ccc(-c2cc(-c3nc4ccccc4[nH]3)nc(N)c2C#N)cc1 is > 100 µM

Sure, the documented TGI for Cn1c(=O)cc(N=Nc2ccc(Cl)c(Cl)c2)[nH]c1=O is > 100 µM

Sure, the documented TGI for O=C1/C(=C/c2ccccc2F)CN(C(=O)C(Cl)Cl)C/C1=C\c1ccccc1F is 3.28 µM

Sure, the documented TGI for COc1cc(-n2cnc(-c3ccc(Cl)cc3)c2)cc(OC)c1OC is 52.2 µM

Sure, the documented TGI for CC(=O)OC[C@@]1(C)[C@@H]2[C@@H]3[C@@]4(CO[C@]3(C)C(=O)[C@@]3(O)C[C@H](C)[C@H](OC(C)=O)[C@@H]3[C@H]4OC(C)=O)[C@H](OC(=O)c3ccccc3)C[C@@H]21 is > 100 µM

Sure, the documented TGI for CC1=CC(=O)c2c(C=O)c(O)c(O)c(C(C)C)c2C1=O is > 100 µM

Sure, the documented TGI for CC(=O)OC1Oc2cc(C)c(C)cc2-c2oc(=O)c(-c3ccc(F)cc3)cc21 (configuration not stated) is 54 µM

Sure, the documented TGI for CC1(C)CCCCCCC2CC2CCCCCC(C)(C)C1=O (configuration not stated) is > 100 µM

Sure, the documented TGI for Cc1c(-c2nnc(-c3ccc(F)cc3)o2)nnn1-c1ccnc2c(C(F)(F)F)cccc12 is > 100 µM

Sure, the documented TGI for O=C(Nc1sccc1S(=O)(=O)c1ccc(Cl)cc1)c1ccccc1 is > 100 µM

Sure, the documented TGI for COC(=O)CCc1ccc2c(c1)CC1(Cc3ccccc3C1)C2 is > 100 µM

Sure, the documented TGI for CCOC(=O)c1[nH]cc(C)c1-c1c[nH]c2ccccc12 is > 100 µM

Sure, the documented TGI for C[C@]12CC[C@H]3[C@@H](CCC4=CC(=O)CC[C@@]43C)[C@@H]1CC[C@@H]2C(=O)Nc1ccc([N+](=O)[O-])c(C(F)(F)F)c1 is 25.4 µM

Sure, the documented TGI for O=C(NCCNc1nccc(-c2c(-c3ccc(F)cc3)nc3sccn23)n1)c1ccccc1 is 53.8 µM

Sure, the documented TGI for O=C(O)c1ccccc1-c1ccccc1C(=O)Nc1ccc2c(c1)[nH]c(=O)c1ccccc12 is > 100 µM

Sure, the documented TGI for CC1(C)N=C(N)N=C(N)N1c1cccc(CCCCOc2ccccc2)c1 is > 100 µM

Sure, the documented TGI for CCN(CC)CCCC(Cc1ccccc1)Nc1c2ccc(Cl)cc2nc2ccc(OC)cc12 (configuration not stated) is 13.9 µM

Sure, the documented TGI for CSc1nc(C)c(Br)c(=O)n1C1OC(COC(C)=O)C(OC(C)=O)C(OC(C)=O)C1OC(C)=O (configuration not stated) is > 100 µM

Sure, the documented TGI for Cc1cn([C@H]2C[C@@H]3[C@@H](COC(CCl)N3O)O2)c(=O)[nH]c1=O (some centres not stated) is > 100 µM

Sure, the documented TGI for N#CCCSC(=S)C1CCCC1=N (configuration not stated) is > 100 µM

Sure, the documented TGI for Nc1ncnc2c1ncn2C1C=CC(COS(N)(=O)=O)C1 (configuration not stated) is > 100 µM

Sure, the documented TGI for CSC1=Nc2c(c(C)c(C)n2COC(CO)CO)C2=NC(=O)CC(C)N12 (configuration not stated) is > 100 µM

Sure, the documented TGI for Cc1ccc(C(=O)C#Cc2c[nH]c(=O)[nH]c2=O)cc1 is 73.6 µM

Sure, the documented TGI for COCCN(CCOC)C(=O)COc1c2cc(C(C)(C)C)cc1Cc1cc(C(C)(C)C)cc(c1OCC(=O)N(CCOC)CCOC)Cc1cc(C(C)(C)C)cc(c1OCC(=O)N(CCOC)CCOC)Cc1cc(C(C)(C)C)cc(c1OCC(=O)N(CCOC)CCOC)Cc1cc(C(C)(C)C)cc(c1OCC(=O)N(CCOC)CCOC)C2 is 14.6 µM

Sure, the documented TGI for CC(C(=O)O)/C(=C\c1ccc2c(c1)OCO2)C(=O)O (configuration not stated) is > 100 µM

Sure, the documented TGI for O=C1N=NC(=O)N1c1cc(C(F)(F)F)cc(C(F)(F)F)c1 is 16.2 µM

Sure, the documented TGI for Brc1ccccc1C=NC12CC3CC(CC(C3)C1)C2 is > 100 µM

Sure, the documented TGI for O=[N+]([O-])C(=C(N1CCCCC1)N1CCCCC1)/C(Cl)=C(\Cl)[N+](=O)[O-] is > 59.8 µM

Sure, the documented TGI for O=c1c2cc(-c3ccccc3)cnc2sn1-c1ccc(Oc2ccccc2)cc1 is > 100 µM
